Hey, just so you know, these numbers are from paper PMC12412652.

# tgt: T1, BFL-1 (UniProt Q16548 1-175, biotin)
# T1 chain: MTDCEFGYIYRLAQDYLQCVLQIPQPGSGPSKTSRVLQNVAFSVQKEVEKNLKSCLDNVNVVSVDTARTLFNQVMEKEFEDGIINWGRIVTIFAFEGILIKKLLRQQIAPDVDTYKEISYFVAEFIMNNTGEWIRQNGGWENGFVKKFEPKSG
# assay_info: BLI
measurement_kind: Kd (nM)

binder: αBAX2 (designed binder) GADPKKVLDKARDQAENRVRELRQKLTELYKEARKLDLTQEERRKLIKRYKAAMNEAIKDIHEAIEQAKEEADKLKDAGLVNEQQLKELKQRLNEKALAAAFRASGDTWHARRKLQYG
Kd (nM): 300
--
binder: BAK-CDP02 (BAK-targeting computationally designed protein 02 of 11) (designed binder) GADPKKVLDKAKDQAENVVRKLKQILEELYKEARKLDLTQDEKIELILRYIAAMLAAIGDILEAIRQAKEEADKLKKAGLVNSQQLDELKRRLEELRKEAARKARDYAEEFRNKLEYG
Kd (nM): 10
--
binder: αBAK1 (designed binder) GADPKKVLDKAKDQMENVVRKLKQILEELAKEARKLDLTQDEKIELILRYIVAHLAAIGDIEEAIREAKEEADKLKKAGLVNSQQLDEFKRRLEELHKEADRKRRDYAEEFRNKLEYG
Kd (nM): 1700

a. BAX-CDP01 (BAX-targeting computationally designed protein 01) (designed binder) GADPKKVLDKARDQAENRVRELAQKLEELYKEARKLDLTQEERRKLEKRYKAAMEEAIKDIREAIRQAKQEADKLKKAGLVNSQQLKELKQRLNELAIAAALRAIGDAIEFRRKLQYG
b. αBAK2 (designed binder) GADPKKVLDKADDQMENVVVTLKQELEELAKERRKLDLTQSEKIELKLRYIVAHLAAIGDIEEAIREAKEEADKLKKAGLVNSQQFAEFKRRLEELHKEADRKRRDYAEEFRNKLEYG
When their Kd values are compared, which is larger, a or b ? Your choice should be expressed through its label. b
